- Tested on: Abutilon theophrasti (ABUTH)
- ASSAY_REMARKS: B. Herbicidal post-emergence efficacy, ABUTH
- Type: in vivo
- CONDITION_LABEL: 1280 g/ha, rated visually after about 3 weeks
QUANTITY_KIND: Post-emergence efficacy against ABUTH in % (%)
Give just the numeric value; % need not be written.

{"MOLECULE": "O=S(=O)(CCCC(F)(F)F)Oc1ccccc1Oc1ncc(Cl)cn1", "EXPERIMENTAL_RESULT": 90}
{"MOLECULE": "O=S(=O)(CCC(F)=C(F)F)Oc1c(Cl)cccc1Oc1ncc(Cl)cn1", "EXPERIMENTAL_RESULT": 100}

I would be grateful if you could share the reported Post-emergence efficacy against ABUTH in % for COCCS(=O)(=O)Oc1ccccc1Oc1ncc(Cl)cn1 .
90

I would be grateful if you could share the reported Post-emergence efficacy against ABUTH in % for CCCS(=O)(=O)Oc1ccccc1Oc1ncc(Cl)cn1 .
100

I would be grateful if you could share the reported Post-emergence efficacy against ABUTH in % for O=S(=O)(CC1CCCO1)Oc1c(F)cccc1Oc1ncc(Cl)cn1 (stereo not shown) .
90

I would be grateful if you could share the reported Post-emergence efficacy against ABUTH in % for N#Cc1cccc(Oc2ncc(Cl)cn2)c1OS(=O)(=O)CCCCl .
100

I would be grateful if you could share the reported Post-emergence efficacy against ABUTH in % for O=S(=O)(CCC(F)(F)F)Oc1c(Cl)cccc1Oc1ncc(Br)cn1 .
100

I would be grateful if you could share the reported Post-emergence efficacy against ABUTH in % for O=S(=O)(CCCC(F)(F)F)Oc1c(Br)cccc1Oc1ncc(F)cn1 .
100

I would be grateful if you could share the reported Post-emergence efficacy against ABUTH in % for O=S(=O)(CC1CC(F)(F)C1)Oc1c(Br)cccc1Oc1ncc(Cl)cn1 .
100

I would be grateful if you could share the reported Post-emergence efficacy against ABUTH in % for O=S(=O)(CCC(F)(F)F)Oc1c(Br)cccc1Oc1ncc(F)cn1 .
100

I would be grateful if you could share the reported Post-emergence efficacy against ABUTH in % for O=S(=O)(CCC(F)(F)F)Oc1ccccc1Oc1ncc(Cl)cn1 .
90

I would be grateful if you could share the reported Post-emergence efficacy against ABUTH in % for O=S(=O)(CCCC(F)(F)F)Oc1c(F)cccc1Oc1ncc(Cl)cn1 .
90

I would be grateful if you could share the reported Post-emergence efficacy against ABUTH in % for O=S(=O)(CC(F)(F)F)Oc1ccccc1Oc1ncc(Cl)cn1 .
90

I would be grateful if you could share the reported Post-emergence efficacy against ABUTH in % for Cc1cccc(Oc2ncc(Br)cn2)c1OS(=O)(=O)CCC(F)(F)F .
100

I would be grateful if you could share the reported Post-emergence efficacy against ABUTH in % for O=S(=O)(CCCC(F)(F)C(F)(F)F)Oc1c(F)cccc1Oc1ncc(Cl)cn1 .
100

I would be grateful if you could share the reported Post-emergence efficacy against ABUTH in % for Cc1cccc(Oc2ncc(Cl)cn2)c1OS(=O)(=O)CC1CC(F)(F)C1 .
100

====

- Test system: Veronica persica (VERPE)
- ASSAY_REMARKS: B. Herbicidal post-emergence efficacy, VERPE
- Type: in vivo
- CONDITION_LABEL: 320 g/ha
QUANTITY_KIND: Post-emergence efficacy against VERPE (%)
Give just the numeric value; % need not be written.

{"COMPOUND": "O=S(=O)(CC1CCCO1)Oc1c(F)cccc1Oc1ncc(Cl)cn1 (stereo not shown) [Example I-54]", "UNIT_INFO": "%", "Post-emergence efficacy against VERPE": 90}
{"COMPOUND": "O=S(=O)(CCCCl)Oc1ccccc1Oc1ncc(Cl)cc1F [Example I-64]", "UNIT_INFO": "%", "Post-emergence efficacy against VERPE": 90}

I would be grateful if you could share the reported Post-emergence efficacy against VERPE for CCS(=O)(=O)Oc1ccccc1Oc1ncc(Cl)cn1 [Example I-16] .
100

I would be grateful if you could share the reported Post-emergence efficacy against VERPE for O=S(=O)(CCC(F)(F)F)Oc1c(Cl)cccc1Oc1ncc(Br)cn1 [Example I-32] .
100

I would be grateful if you could share the reported Post-emergence efficacy against VERPE for O=S(=O)(CCCC(F)(F)F)Oc1ccccc1Oc1ccc(Cl)cn1 [Example I-26] .
90

I would be grateful if you could share the reported Post-emergence efficacy against VERPE for CCCCCS(=O)(=O)Oc1ccccc1Oc1ncc(Cl)cn1 [Example I-24] .
100

I would be grateful if you could share the reported Post-emergence efficacy against VERPE for Cc1cccc(Oc2ncc(Br)cn2)c1OS(=O)(=O)CCC(F)(F)F [Example I-33] .
100

====

- Tested on: Polygonum convolvulus (POLCO)
- ASSAY_REMARKS: C. Herbicidal pre-emergence efficacy, POLCO
- Assay type: in vivo
- CONDITION_LABEL: 320 g/ha, scored after about 3 weeks
Below is a list of entries, each paired with its recorded Pre-emergence efficacy against POLCO value.
Give just the numeric value; % need not be written.

The examples below pair each entry with its known result.
{"MOLECULE": "O=S(=O)(CCC(F)=C(F)F)Oc1c(F)cccc1Oc1ncc(Cl)cn1 [Example I-70]", "Pre-emergence efficacy against POLCO [%]": 100}
{"MOLECULE": "CCCS(=O)(=O)Oc1ccccc1Oc1ncc(Cl)cn1 [Example I-3]", "Pre-emergence efficacy against POLCO [%]": 100}
{"MOLECULE": "O=S(=O)(CCCC(F)(F)F)Oc1c(Cl)cccc1Oc1ncc(Cl)cn1 [Example I-39]", "Pre-emergence efficacy against POLCO [%]": 100}
{"MOLECULE": "O=S(=O)(CCCC(F)(F)C(F)(F)F)Oc1c(F)cccc1Oc1ncc(Cl)cn1 [Example I-68]", "Pre-emergence efficacy against POLCO [%]": 90}
{"MOLECULE": "O=S(=O)(CC1CC1)Oc1ccccc1Oc1ncc(Cl)cn1 [Example I-23]", "Pre-emergence efficacy against POLCO [%]": 100}
{"MOLECULE": "Cc1cccc(Oc2ncc(Cl)cn2)c1OS(=O)(=O)CCC(F)=C(F)F [Example I-71]", "Pre-emergence efficacy against POLCO [%]": 100}
{"MOLECULE": "O=S(=O)(CCCC(F)(F)F)Oc1ccccc1Oc1ncc(Cl)cn1 [Example I-10]", "Pre-emergence efficacy against POLCO [%]": 100}
{"MOLECULE": "O=S(=O)(CCCCCl)Oc1ccccc1Oc1ncc(Cl)cn1 [Example I-15]", "Pre-emergence efficacy against POLCO [%]": 100}

I would be grateful if you could share the reported Pre-emergence efficacy against POLCO for CCCCCS(=O)(=O)Oc1ccccc1Oc1ncc(Cl)cn1 [Example I-24] .
80

====

- Test system: Kochia scoparia (KCHSC)
- ASSAY_REMARKS: B. Herbicidal post-emergence efficacy, KCHSC
- Assay type: in vivo
- CONDITION_LABEL: 80 g/ha, rated visually after about 3 weeks
- Description: Seeds of mono- and dicotyledonous weed plants were placed in plastic pots in sandy loam soil (doubly sown with in each case one species of mono- or dicotyledonous weed plants per pot), covered with soil and cultivated in a greenhouse under controlled growth conditions. 2 to 3 weeks after sowing, the test plants were treated at the one-leaf stage. […]
Below is a list of entries, each paired with its recorded Post-emergence efficacy against KCHSC in % value.

The examples below pair each entry with its known result.
{"COMPOUND": "O=S(=O)(CCCC(F)F)Oc1c(F)cccc1Oc1ncc(Cl)cn1 [Example I-56]", "EXPERIMENTAL_RESULT": "90%"}
{"COMPOUND": "O=S(=O)(CCCCCl)Oc1ccccc1Oc1ncc(Cl)cn1 [Example I-15]", "EXPERIMENTAL_RESULT": "100%"}
{"COMPOUND": "O=S(=O)(CC1CC(F)(F)C1)Oc1c(Br)cccc1Oc1ncc(Cl)cn1 [Example I-75]", "EXPERIMENTAL_RESULT": "90%"}

Give the reported Post-emergence efficacy against KCHSC in % for O=S(=O)(CCCC(F)(F)F)Oc1c(Cl)cccc1Oc1ncc(Br)cn1 [Example I-34] (system: Kochia scoparia (KCHSC)).
100%

Give the reported Post-emergence efficacy against KCHSC in % for Cc1cccc(Oc2ncc(Cl)cn2)c1OS(=O)(=O)CC1CC(F)(F)C1 [Example I-74] (system: Kochia scoparia (KCHSC)).
90%

====

- Tested on: Poa annua (POAAN)
- ASSAY_REMARKS: B. Herbicidal post-emergence efficacy, POAAN
- Type: in vivo
- CONDITION_LABEL: 320 g/ha
- Procedure: Seeds of mono- and dicotyledonous weed plants were placed in plastic pots in sandy loam soil (doubly sown with in each case one species of mono- or dicotyledonous weed plants per pot), covered with soil and cultivated in a greenhouse under controlled growth conditions. 2 to 3 weeks after sowing, the test plants were treated at the one-leaf stage. […]
QUANTITY_KIND: Post-emergence efficacy against POAAN (%)
Give just the numeric value; % need not be written.

The examples below pair each entry with its known result.
{"MOLECULE": "Cc1cccc(Oc2ncc(Br)cn2)c1OS(=O)(=O)CCC(F)(F)F", "QUANTITY_KIND": "Post-emergence efficacy against POAAN", "EXPERIMENTAL_RESULT": 90}
{"MOLECULE": "O=S(=O)(CCC(F)(F)F)Oc1c(F)cccc1Oc1ncc(Cl)cn1", "QUANTITY_KIND": "Post-emergence efficacy against POAAN", "EXPERIMENTAL_RESULT": 90}
{"MOLECULE": "O=S(=O)(CC1CC1)Oc1ccccc1Oc1ncc(Cl)cn1", "QUANTITY_KIND": "Post-emergence efficacy against POAAN", "EXPERIMENTAL_RESULT": 90}
{"MOLECULE": "C=CCCS(=O)(=O)Oc1c(F)cccc1Oc1ncc(Cl)cn1", "QUANTITY_KIND": "Post-emergence efficacy against POAAN", "EXPERIMENTAL_RESULT": 90}

I would be grateful if you could share the reported Post-emergence efficacy against POAAN for CC(C)CCS(=O)(=O)Oc1ccccc1Oc1ncc(Cl)cn1 .
90

I would be grateful if you could share the reported Post-emergence efficacy against POAAN for O=S(=O)(CCCC(F)(F)F)Oc1c(Br)cccc1Oc1ncc(Cl)cn1 .
90

I would be grateful if you could share the reported Post-emergence efficacy against POAAN for O=S(=O)(CCCCl)Oc1ccccc1Oc1ncc(F)cn1 .
90

I would be grateful if you could share the reported Post-emergence efficacy against POAAN for COCCS(=O)(=O)Oc1c(F)cccc1Oc1ncc(Cl)cn1 .
90

I would be grateful if you could share the reported Post-emergence efficacy against POAAN for O=S(=O)(CC1CC1(Cl)Cl)Oc1c(F)cccc1Oc1ncc(Cl)cn1 (stereo not drawn) .
90
